In this section we review reported CC50 at 48 h values for a set of molecules.
Test: in vitro
Conditions: human, uninfected SupT1 cells

Some solved cases for reference:
>  <molecule>
CC1(C)Cc2cccc(OCC(=O)Nc3nc4ccc(F)cc4s3)c2O1 [Compound 183]

>  <CC50 at 48 h>
> 100 µM

$$$$
>  <molecule>
Cc1csc(N(Cc2ccccc2)C(=O)COc2cccc3c2OC(C)(C)C3)n1 [Compound 159]

>  <CC50 at 48 h>
> 90 µM

$$$$

Ask | I would be grateful if you could share the reported CC50 at 48 h for Cc1csc(N(C(=O)COc2cccc3c2OC(C)(C)C3)c2ccncc2)n1 [Compound 95] .
Reply | > 125 µM

Ask | Give the measured CC50 at 48 h of Cc1cnc(NC(=O)COc2cccc3c2OC(C)(C)C3)cn1 [Compound 9] .
Reply | > 125 µM

Ask | Give the measured CC50 at 48 h of COc1cccc(OC)c1OCC(=O)N(C)c1nc2c(s1)CCCC2 [Compound 131] .
Reply | ~125 µM

Ask | Requested read-out: CC50 at 48 h. Entry: Cc1ccc(CN(C(=O)COc2cccc3c2OC(C)(C)C3)c2ccc(C)cn2)cc1 [Compound 47]
Reply | > 125 µM

Ask | Which CC50 at 48 h value belongs to Cc1cc2c(OCC(=O)N(C)c3nc4c(s3)CCCC4)cccc2[nH]1 [Compound 123] ?
Reply | > 125 µM

Ask | Suppose we examine the molecule Cc1csc(N(C(=O)COc2cccc3c2OC(C)(C)C3)c2ccccn2)n1 [Compound 91] ; what CC50 at 48 h value has been reported?
Reply | > 100 µM

Ask | Give its CC50 at 48 h value. Item: Cc1csc(N(Cc2ncccn2)C(=O)COc2cccc3c2OC(C)(C)C3)n1 [Compound 43]
Reply | > 100 µM

Ask | Entry under review: C=Cc1ccc(NC(=O)COc2cccc3c2OC(C)(C)C3)nn1 [Compound 84] . Reported CC50 at 48 h?
Reply | > 100 µM

Ask | Returns the measured CC50 at 48 h for the input molecule. Input: COc1ccccc1OCC(=O)Nc1nc(C)c(C)s1 [Compound 186]
Reply | > 100 µM

Ask | Name the recorded CC50 at 48 h for Cc1ccc(CN(C(=O)COc2cccc3c2OC(C)(C)C3)c2ccc(C)cn2)nc1 [Compound 49] .
Reply | > 125 µM

Ask | CC50 at 48 h for CC1(C)Cc2cccc(OCC(=O)Nc3nc4c(s3)CCCCC4)c2O1 [Compound 3] ?
Reply | > 100 µM

Ask | Suppose we examine the molecule CN(C(=O)COc1cccc2cc[nH]c12)c1nc2c(s1)CCCC2 [Compound 128] ; what CC50 at 48 h value has been reported?
Reply | > 125 µM

Ask | Quick one: CC50 at 48 h of CC1(C)Cc2cccc(OCC(=O)Nc3nc4c(-c5ccncc5)cccc4s3)c2O1 [Compound 101] ?
Reply | > 100 µM

Ask | Quick one: CC50 at 48 h of CC1(C)Cc2cccc(OCC(=O)Nc3nc(C(=O)N4CCCCC4)cs3)c2O1 [Compound 151] ?
Reply | > 90 µM

Ask | Which CC50 at 48 h is reported for this molecule? CC1(C)Cc2cccc(OCC(=O)Nc3ccc(Cl)nn3)c2O1 [Compound 24]
Reply | > 100 µM

Ask | Which value of CC50 at 48 h has been reported for CC1(C)Cc2cccc(CCC(=O)N(Cc3ccccn3)c3nc4c(s3)CCCC4)c2O1 [Compound 104] in the records?
Reply | > 125 µM

Ask | Any idea what its CC50 at 48 h is? The molecule is CC1(C)Cc2cccc(OCC(=O)Nc3nc4ccc(OC(F)(F)F)cc4s3)c2O1 [Compound 149]
Reply | > 100 µM

Ask | Query: CC50 at 48 h; subject: Cn1ccnc1CN(C(=O)COc1cccc2c1OC(C)(C)C2)c1nc2c(s1)CCCC2 [Compound 46]
Reply | > 125 µM

Ask | For the molecule shown here, COc1ccccc1CCC(=O)N(C)c1nc2c(s1)CCCC2 [Compound 110] , give the reported CC50 at 48 h.
Reply | > 125 µM

Ask | Report CC50 at 48 h for CC(C)(C)OC(=O)N1CCC(CNC(=O)c2cnc(NC(=O)COc3cccc4c3OC(C)(C)C4)s2)C1 (stereo not drawn) [Compound 157] please.
Reply | > 90 µM

Ask | GET /values?readout=CC50 at 48 h&item= CC1(C)Cc2cccc(OCC(=O)N(Cc3ccccn3)c3nc4c(s3)CCCC4)c2O1 [Compound 38]
Reply | 0.25 µM

Ask | Returns the measured CC50 at 48 h for the input molecule. Input: CN(C(=O)COc1ccccc1C(F)(F)F)c1nc2c(s1)CCCC2 [Compound 160]
Reply | > 125 µM

Ask | Fill in the blank: the reported CC50 at 48 h of Cc1ccc(N(C(=O)COc2cccc3c2OC(C)(C)C3)c2nc(C)cs2)cc1 [Compound 64] is ____.
Reply | > 100 µM

Ask | For COc1cccc2sc(NC(=O)COc3cccc4c3OC(C)(C)C4)nc12 [Compound 146] , what is its reported CC50 at 48 h?
Reply | > 10 µM

Ask | Entry Cc1csc(N(Cc2ccncc2)C(=O)COc2cccc3c2OC(C)(C)C3)n1 [Compound 35] has what CC50 at 48 h?
Reply | > 100 µM

Ask | I'd like to know its CC50 at 48 h. The molecule in question is C=Cc1ccc(NC(=O)COc2cccc3c2OC(C)(C)C3)nc1C [Compound 74]
Reply | > 125 µM

Ask | Report CC50 at 48 h for CC1(C)Cc2cccc(OCC(=O)Nc3nc4c(F)c(F)ccc4s3)c2O1 [Compound 6] please.
Reply | 36 µM

Ask | Given the entry CC1(C)Cc2cccc(OCC(=O)Nc3ccc4ccccc4n3)c2O1 [Compound 16] , report its measured CC50 at 48 h.
Reply | > 90 µM

Ask | What measured CC50 at 48 h goes with Cc1csc(NC(=O)COc2ccccc2OCc2ccccc2)n1 [Compound 141] ?
Reply | > 100 µM

Ask | Consider the molecule CC1(C)Cc2cccc(OCC(=O)Nc3nc(C(=O)N4CCCC4)cs3)c2O1 [Compound 150] and give its measured CC50 at 48 h.
Reply | > 90 µM

* * *

Experiment: in vitro
Details: human, uninfected SupT1 cells
reportedProperty: CC50 at 48 h

// worked examples, CC50 at 48 h included
>  <chemicalStructure>
CC1(C)Cc2cccc(OCC(=O)Nc3nc4cc(F)ccc4s3)c2O1

>  <CC50 at 48 h>
> 100 µM

$$$$
>  <chemicalStructure>
COc1cccc(F)c1OCC(=O)N(C)c1nc2c(s1)CCCC2

>  <CC50 at 48 h>
> 125 µM

$$$$
>  <chemicalStructure>
Cc1cccc(CN(C(=O)COc2cccc3c2OC(C)(C)C3)c2nc3c(s2)CCCC3)n1

>  <CC50 at 48 h>
> 100 µM

$$$$
>  <chemicalStructure>
CC1(C)Cc2cccc(OCC(=O)Nc3nc(C(C)(C)C)cs3)c2O1

>  <CC50 at 48 h>
> 100 µM

$$$$

Next up:
Ask | Param item = CN(C(=O)COc1cccc2c1OCCO2)c1nc2c(s1)CCCC2 ; retrieve measured CC50 at 48 h.
Reply | > 125 µM

* * *

Test system: downmodulation of MHC-I molecules expressed on the surface of HIV infected SupT1 cells
Test: cells
Details: Human immunodeficiency virus 1, SUP-T1, read-out: EC50 for inhibition of MHC-I downmodulation utilizing the R1 parameter
reportedProperty: pEC50
To interpret pEC50, take it as minus log10 of a concentration measured in moles per litre.

Ask | What is its pEC50 for downmodulation of MHC-I molecules expressed on the surface of HIV infected SupT1 cells? Entry: CC1(C)Cc2cccc(OCC(=O)N(c3ccccc3)c3nc4c(s3)CCCC4)c2O1
Reply | 8.82

Ask | What pEC50 appears in the records for this compound with downmodulation of MHC-I molecules expressed on the surface of HIV infected SupT1 cells? Cc1cc(NC(=O)COc2cccc3c2OC(C)(C)C3)ncc1Br
Reply | 4.64

Ask | Which pEC50 is reported with downmodulation of MHC-I molecules expressed on the surface of HIV infected SupT1 cells for this entry: CC(C)c1ccc(NC(=O)COc2cccc3c2OC(C)(C)C3)nn1 ?
Reply | 6.24

Ask | Recorded pEC50 for Cc1csc(N(C(=O)COc2cccc3c2OC(C)(C)C3)c2ccc(F)cc2)n1 with downmodulation of MHC-I molecules expressed on the surface of HIV infected SupT1 cells, please?
Reply | 6.54

* * *

System: downmodulation of MHC-I molecules expressed on the surface of HIV infected SupT1 cells
Test: cells
Settings: Human immunodeficiency virus 1, SUP-T1, read-out: EC50 for inhibition of MHC-I downmodulation utilizing the R1 parameter
reportedProperty: log10 EC50 (log10 of the value in nM)
Note: values are log10 of EC50 expressed in nM.

>  <compound>
Cc1csc(N(C(=O)COc2cccc3c2OC(C)(C)C3)c2ccc(Cl)cc2)n1 [Compound 59]

>  <log10 EC50>
2.93

$$$$
>  <compound>
COc1c(Br)cccc1OCC(=O)N(C)c1nc2c(s1)CCCC2 [Compound 118]

>  <log10 EC50>
3.32

$$$$

Ask | Reported log10 EC50 for Cc1ccnc(CN(C(=O)COc2cccc3c2OC(C)(C)C3)c2nc3c(s2)CCCC3)c1 [Compound 41] : what is it?
Reply | 1.30

Ask | Item CC1(C)Cc2cccc(CCC(=O)Nc3nc4c(s3)CCCC4)c2O1 [Compound 105] has what recorded log10 EC50?
Reply | 2.59

Ask | Name the recorded log10 EC50 for CC1(C)Cc2cccc(OCC(=O)Nc3nc4ccccc4s3)c2O1 [Compound 143] .
Reply | 2.61

Ask | Which value of log10 EC50 has been reported for Cc1ccc(NC(=O)COc2cccc3c2OC(C)(C)C3)nn1 [Compound 2] in the records?
Reply | 3.32

Ask | Given C=CCN(C(=O)COc1cccc2c1OC(C)(C)C2)c1nc(C)cs1 [Compound 63] , state its recorded log10 EC50.
Reply | 2.28

Ask | May I ask what log10 EC50 has been recorded for C=Cc1ccc(N(C)C(=O)COc2cccc3c2OC(C)(C)C3)nn1 [Compound 82] ?
Reply | 3.77

Ask | What log10 EC50 value was documented for this compound, Cc1csc(N(Cc2ccccc2)C(=O)COc2cccc3c2OC(C)(C)C3)n1 [Compound 159] ?
Reply | 2.26

Ask | log10 EC50 lookup needed for O=C(COc1cccc2c1OCCO2)Nc1nc2ccccc2s1 [Compound 176] , thanks.
Reply | 3.95

Ask | Item under review: Cc1csc(N(CCc2ccccc2)C(=O)COc2cccc3c2OC(C)(C)C3)n1 [Compound 50] . Reported log10 EC50?
Reply | 4.15

Ask | So what's the measured log10 EC50 for this one? COc1cccc2sc(NC(=O)COc3cccc4c3OC(C)(C)C4)nc12 [Compound 146]
Reply | 3.23

Ask | Could you tell me which log10 EC50 is on file for CCc1ccc(NC(=O)COc2cccc3c2OC(C)(C)C3)nc1C [Compound 75] ?
Reply | 2.32

Ask | Please look up its log10 EC50: CCc1cccc(NC(=O)COc2cccc3c2OC(C)(C)C3)n1 [Compound 158]
Reply | 4.11

Ask | Request the reported log10 EC50 associated with C=Cc1ccc(NC(=O)COc2cccc3c2OC(C)(C)C3)nn1 [Compound 84]
Reply | 2.95

Ask | Using the record for COc1ccccc1OCC(=O)N(C)c1nc2c(s1)CCCC2 [Compound 130] , report its log10 EC50.
Reply | 2.58
